- Condition Set: in acetone, 283.2 K
Experimental Endpoint: solubility (mole fraction)
The answer should be written as a number, with no unit following it.

State its solubility (mole fraction) for this compound: "CC1(C)O[C@H]2CC(=O)OC[C@]23[C@H]2CC[C@@]4(C)[C@H](c5ccoc5)OC(=O)[C@H]5O[C@]54[C@]2(C)C(=O)C[C@@H]13" 0.00409

* * *

- Condition Set: in water, 318.2 K
Experimental Endpoint: solubility (mole fraction)

State its solubility (mole fraction) for this compound: "CC1(C)O[C@H]2CC(=O)OC[C@]23[C@H]2CC[C@@]4(C)[C@H](c5ccoc5)OC(=O)[C@H]5O[C@]54[C@]2(C)C(=O)C[C@@H]13" 1.49e-06

* * *

- Condition Set: in methanol, 298.2 K
Experimental Endpoint: solubility (mole fraction)
The answer should be written as a number, with no unit following it.

State its solubility (mole fraction) for this compound: "CC1(C)O[C@H]2CC(=O)OC[C@]23[C@H]2CC[C@@]4(C)[C@H](c5ccoc5)OC(=O)[C@H]5O[C@]54[C@]2(C)C(=O)C[C@@H]13" 0.000101

* * *

- Condition Set: in water, 293.2 K
Experimental Endpoint: solubility (mole fraction)
The answer should be written as a number, with no unit following it.

State its solubility (mole fraction) for this compound: "CC1(C)O[C@H]2CC(=O)OC[C@]23[C@H]2CC[C@@]4(C)[C@H](c5ccoc5)OC(=O)[C@H]5O[C@]54[C@]2(C)C(=O)C[C@@H]13" 4.77e-07

* * *

- Condition Set: in methanol, 318.2 K
Experimental Endpoint: solubility (mole fraction)
The answer should be written as a number, with no unit following it.

State its solubility (mole fraction) for this compound: "CC1(C)O[C@H]2CC(=O)OC[C@]23[C@H]2CC[C@@]4(C)[C@H](c5ccoc5)OC(=O)[C@H]5O[C@]54[C@]2(C)C(=O)C[C@@H]13" 0.000192

* * *

- Condition Set: in acetone, 303.2 K
Experimental Endpoint: solubility (mole fraction)
The answer should be written as a number, with no unit following it.

State its solubility (mole fraction) for this molecule: "CC1(C)O[C@H]2CC(=O)OC[C@]23[C@H]2CC[C@@]4(C)[C@H](c5ccoc5)OC(=O)[C@H]5O[C@]54[C@]2(C)C(=O)C[C@@H]13" 0.00474

* * *

- Condition Set: in acetone, 318.2 K
Experimental Endpoint: solubility (mole fraction)
The answer should be written as a number, with no unit following it.

State its solubility (mole fraction) for this compound: "CC1(C)O[C@H]2CC(=O)OC[C@]23[C@H]2CC[C@@]4(C)[C@H](c5ccoc5)OC(=O)[C@H]5O[C@]54[C@]2(C)C(=O)C[C@@H]13" 0.0055
